- targetOrSystem: human TRPM8 (Homo sapiens (Human))
- test: TRPM8 inhibition assay (menthol-induced calcium influx, FDSS)
- conditionLabel: HEK293 cells stably expressing human TRPM8; 100 μM menthol; Fura-2AM Ca2+ signal; read-out: TRPM8 Blocking Test (IC50)
- Description: The functional activity of compounds was determined by measuring changes in intracellular calcium concentration using a Ca^2+ sensitive fluorescent dye. The changes in fluorescent signal were monitored by the cell imaging technology by Hamamatsu Photonics's Functional Drug Screening System (FDSS). […] Changes in intracellular Ca^2+ evoked by 100 μM menthol were measured for 2 min using FDSS. IC50 vales were determined from four-point concentration-response studies. […]
measureName: IC50 (nM)

compound=Cc1c(N(Cc2nc3ccccc3o2)S(=O)(=O)c2ccc(C(=O)O)cc2)ncc2ccccc12 targetorsystem="human TRPM8 (Homo sapiens (Human))" testresult=195
compound=Cc1c(N(Cc2ccc3c(Cl)c[nH]c3c2)S(=O)(=O)c2ccc(C(=O)O)cc2)ncc2ccccc12 targetorsystem="human TRPM8 (Homo sapiens (Human))" testresult=15
compound=Cc1c(N(Cc2ccc(OC(F)(F)F)cc2)S(=O)(=O)c2ccc(C(=O)NC#N)cc2)ncc2ccccc12 targetorsystem="human TRPM8 (Homo sapiens (Human))" testresult=14
compound=Cc1c(N(Cc2ccc3ccn(C)c3c2)S(=O)(=O)c2ccc(C(=O)O)cc2)ncc2ccccc12 targetorsystem="human TRPM8 (Homo sapiens (Human))" testresult=92
compound=CC(C)c1c(N(Cc2ccc(OC(F)(F)F)cc2)S(=O)(=O)c2ccc(C(=O)O)cc2)ncc2ccccc12 targetorsystem="human TRPM8 (Homo sapiens (Human))" testresult=5.6

1. Cc1c(N(Cc2ccc(OC(F)(F)F)cc2)S(=O)(=O)c2ccc(C(=O)O)cc2)nc(C(C)C)c2ccccc12
2. Cc1c(N(Cc2ccc(C3CC3)cc2)S(=O)(=O)c2ccc(C(=O)O)cc2)ncc2ccccc12
Which of these two has the smaller recorded IC50: 1 or 2 ? I would appreciate it if you answered with the label of your choice.
1

1. Cc1c(N(Cc2ccc3cc[nH]c3c2)S(=O)(=O)c2ccc(C(=O)O)cc2)ncc2ccccc12
2. Cc1cc2ccccc2nc1N(Cc1ccc(F)c(C(F)(F)C2CC2)c1)S(=O)(=O)c1ccc(C(=O)O)cc1
Which of these two has the smaller recorded IC50: 1 or 2 ? I would appreciate it if you answered with the label of your choice.
2
(2: 9.6 nM, 1: 54 nM)

P. Cc1c(N(Cc2ccc(OC(F)(F)F)cc2)S(=O)(=O)c2ccc(C(C)(C)O)cc2)ncc2ccccc12
Q. Cc1c(N(Cc2ccc(COC(F)(F)F)cc2)S(=O)(=O)c2ccc(C(=O)O)cc2)ncc2ccccc12
R. CCOC(C)(c1ccc(CN(c2ncc3ccccc3c2C)S(=O)(=O)c2ccc(C(=O)O)cc2)cc1F)C(F)(F)F (centres unmarked)
Please put the entries in order of rising IC50. Show the ranking through the labels, in the order asked for.
R, Q, P
(R: 5 nM, Q: 8.8 nM, P: 62 nM)

1. CC(O)c1c(N(Cc2ccc(OC(F)(F)F)cc2)S(=O)(=O)c2ccc(C(=O)O)cc2)ncc2ccccc12 (centres unmarked)
2. O=C(O)c1ccc(S(=O)(=O)N(c2ncc3ccccc3c2C2CC2)C2CCc3cc(OC(F)(F)F)ccc32)cc1 (centres unmarked) [Example 187]
Choose between 1 and 2 : whose measured IC50 value is numerically larger? I would appreciate it if you answered with the label of your choice.
2

a. CC(C)c1nc(N(Cc2ccc(OC(F)(F)F)cc2)S(=O)(=O)c2ccc(C(=O)O)cc2)c(C(F)(F)F)c2ccccc12
b. COC1(C(F)(F)F)CCc2cc(CN(c3ncc4ccccc4c3C)S(=O)(=O)c3ccc(C(=O)O)cc3)ccc21 (centres unmarked)
Which of these two has the smaller recorded IC50: a or b ? I would appreciate it if you answered with the label of your choice.
b

P. Cc1c(N(Cc2ccc3cn[nH]c3c2)S(=O)(=O)c2ccc(C(=O)O)cc2)ncc2ccccc12
Q. Cc1c(N(Cc2ccc(C(C)(O)C(F)(F)C(F)(F)F)cc2)S(=O)(=O)c2ccc(C(=O)O)cc2)ncc2ccccc12 (centres unmarked)
R. Cc1c(N(Cc2ccc(C(F)(F)C3(C)CC3)cc2)S(=O)(=O)c2ccc(C(=O)O)cc2)ncc2ccccc12
S. Cc1c(N(Cc2ccc(OC(F)(F)F)cc2)S(=O)(=O)c2ccc(C(=O)O)cc2)nc(Br)c2ccccc12
Please put the entries in order of rising IC50. Show the ranking through the labels, in the order asked for.
R, S, Q, P

P. Cc1c(N(Cc2ccc(OC3CC3)cc2)S(=O)(=O)c2ccc(C(=O)O)cc2)ncc2ccccc12
Q. Cc1c(N(Cc2ccc3c(c2)CCC3)S(=O)(=O)c2ccc(C(=O)O)cc2)ncc2ccccc12
R. COCc1nc(N(Cc2ccc(OC(F)(F)F)cc2)S(=O)(=O)c2ccc(C(=O)O)cc2)c(C)c2ccccc12
S. Cc1c(N(Cc2cc3cccc(Cl)c3s2)S(=O)(=O)c2ccc(C(=O)O)cc2)ncc2ccccc12
T. Cc1c(N(Cc2ccc3c(Cl)cn(C)c3c2)S(=O)(=O)c2ccc(C(=O)O)cc2)ncc2ccccc12
Please put the entries in order of rising IC50. Show the ranking through the labels, in the order asked for.
S, Q, R, P, T

1. NC(=O)c1ccc(S(=O)(=O)N(Cc2ccc(OC(F)(F)F)cc2)c2ncc3ccccc3c2C2CC2)cc1
2. Cc1c(N(Cc2ccc(C(F)(F)C3CC3)c(Cl)c2)S(=O)(=O)c2ccc(C(=O)O)cc2)ncc2ccccc12
Choose between 1 and 2 : whose measured IC50 value is numerically larger? I would appreciate it if you answered with the label of your choice.
1
(1: 8.5 nM, 2: 0.6 nM)

I. Cc1c(N(Cc2ccc(C(C)(O)C(F)(F)F)c(Cl)c2)S(=O)(=O)c2ccc(C(=O)O)cc2)ncc2ccccc12 (centres unmarked)
II. Cc1cc2ccc(Cl)cc2nc1N(Cc1ccc(OC(F)(F)F)cc1)S(=O)(=O)c1ccc(C(=O)O)cc1
Which of these two has the smaller recorded IC50: I or II ? I would appreciate it if you answered with the label of your choice.
I
(I: 15 nM, II: 695 nM)

----------
- targetOrSystem: human TRPM8 (Homo sapiens (Human), UniProt Q7Z2W7)
- Sequence (Q7Z2W7 whole entry): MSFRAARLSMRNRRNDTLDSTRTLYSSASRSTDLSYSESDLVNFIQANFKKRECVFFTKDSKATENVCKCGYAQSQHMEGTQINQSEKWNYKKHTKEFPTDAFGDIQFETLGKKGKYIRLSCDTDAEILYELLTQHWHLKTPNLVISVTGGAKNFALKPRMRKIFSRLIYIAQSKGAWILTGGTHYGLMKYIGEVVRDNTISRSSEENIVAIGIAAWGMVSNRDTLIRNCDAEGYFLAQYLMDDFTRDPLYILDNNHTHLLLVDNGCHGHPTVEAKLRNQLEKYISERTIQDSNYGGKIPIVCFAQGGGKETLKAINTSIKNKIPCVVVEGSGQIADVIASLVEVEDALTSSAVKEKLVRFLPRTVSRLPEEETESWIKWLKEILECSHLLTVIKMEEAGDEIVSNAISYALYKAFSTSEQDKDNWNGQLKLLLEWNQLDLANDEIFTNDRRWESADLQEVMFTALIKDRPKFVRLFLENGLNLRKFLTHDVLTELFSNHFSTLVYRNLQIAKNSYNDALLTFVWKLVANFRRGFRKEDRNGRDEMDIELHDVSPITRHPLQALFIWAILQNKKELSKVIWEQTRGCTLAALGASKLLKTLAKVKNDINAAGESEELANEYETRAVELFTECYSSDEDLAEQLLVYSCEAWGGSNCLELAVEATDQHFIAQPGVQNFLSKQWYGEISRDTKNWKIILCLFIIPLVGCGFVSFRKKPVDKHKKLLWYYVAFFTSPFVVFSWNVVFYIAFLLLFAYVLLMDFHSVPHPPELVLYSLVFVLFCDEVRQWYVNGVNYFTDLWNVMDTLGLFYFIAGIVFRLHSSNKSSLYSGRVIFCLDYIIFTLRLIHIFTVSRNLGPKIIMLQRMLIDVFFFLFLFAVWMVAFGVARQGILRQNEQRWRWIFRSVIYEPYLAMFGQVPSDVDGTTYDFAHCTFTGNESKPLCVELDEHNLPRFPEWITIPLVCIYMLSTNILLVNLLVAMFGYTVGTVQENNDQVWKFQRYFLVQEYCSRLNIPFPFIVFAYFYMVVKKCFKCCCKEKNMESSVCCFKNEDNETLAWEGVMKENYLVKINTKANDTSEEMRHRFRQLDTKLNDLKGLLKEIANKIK
- test: TRPM8 inhibition assay (menthol-induced calcium influx, FDSS)
- conditionLabel: HEK293 cells stably expressing human TRPM8; 100 μM menthol; Fura-2AM Ca2+ signal; read-out: TRPM8 Blocking Test (IC50)
measureName: IC50 (nM)

Examples with answers:
compound=CC(=O)c1ccc(S(=O)(=O)N(Cc2ccc(OC(F)(F)F)cc2)c2ncc3ccccc3c2C)cc1 measurename=IC50 testresult=95
compound=CCc1nc(N(Cc2ccc(OC(F)(F)F)cc2)S(=O)(=O)c2ccc(C(=O)O)cc2)c(C)c2ccccc12 measurename=IC50 testresult=8.1
compound=O=C(O)c1ccc(S(=O)(=O)N(Cc2ccc(OC(F)(F)F)cc2)c2ncc3ccccc3c2Br)cc1 measurename=IC50 testresult=2.3
compound=Cc1cc2ccccc2nc1N(Cc1ccc(C(F)(F)C2CC2)c(F)c1)S(=O)(=O)c1ccc(C(=O)O)cc1 measurename=IC50 testresult=3.1
compound=O=C(O)c1ccc(S(=O)(=O)N(Cc2ccc(OC(F)(F)F)cc2)c2cc3ccccc3cn2)cc1 measurename=IC50 testresult=23

1. Cc1cccc2cnc(N(Cc3ccc(OC(F)(F)F)cc3)S(=O)(=O)c3ccc(C(=O)O)cc3)c(C)c12
2. Cc1c(N(Cc2ccc(OC(F)(F)F)cc2)S(=O)(=O)c2ccc(C(=O)O)cc2)nc(C(C)O)c2ccccc12 (stereo not shown)
Choose between 1 and 2 : whose measured IC50 value is numerically larger? I would appreciate it if you answered with the label of your choice.
2

----------
- targetOrSystem: human TRPM8 (Homo sapiens (Human), UniProt Q7Z2W7)
- test: TRPM8 inhibition assay (menthol-induced calcium influx, FDSS)
- conditionLabel: HEK293 cells stably expressing human TRPM8; 100 μM menthol; Fura-2AM Ca2+ signal; read-out: TRPM8 Blocking Test (IC50)
measureName: IC50 (nM)

Examples with answers:
chemicalsmiles=Cc1c(N(Cc2cc3cc(Cl)ccc3s2)S(=O)(=O)c2ccc(C(=O)O)cc2)ncc2ccccc12 targetorsystem="human TRPM8 (Homo sapiens (Human), UniProt Q7Z2W7)" testresult=5.4
chemicalsmiles=Cc1c(N(Cc2ccc(-c3ccccc3F)cc2)S(=O)(=O)c2ccc(C(=O)O)cc2)ncc2ccccc12 targetorsystem="human TRPM8 (Homo sapiens (Human), UniProt Q7Z2W7)" testresult=10

P. O=C(O)c1ccc(S(=O)(=O)N(Cc2ccc(OC(F)(F)F)cc2)c2cc3ccccc3c(Br)n2)cc1
Q. Cc1c(N(Cc2ccc(C(F)(F)F)cn2)S(=O)(=O)c2ccc(C(=O)O)cc2)ncc2ccccc12
Choose between P and Q : whose measured IC50 value is numerically larger? I would appreciate it if you answered with the label of your choice.
P
(P: 131 nM, Q: 38 nM)

----------
- targetOrSystem: human TRPM8 (Homo sapiens (Human), UniProt Q7Z2W7)
- test: TRPM8 inhibition assay (menthol-induced calcium influx, FDSS)
- conditionLabel: HEK293 cells stably expressing human TRPM8; 100 μM menthol; Fura-2AM Ca2+ signal; read-out: TRPM8 Blocking Test (IC50)
pIC50: −log10 of the molar value.
measureName: pIC50

chemicalsmiles=O=C(O)c1ccc(S(=O)(=O)N(Cc2ccc(OC(F)(F)F)cc2)c2ncc(Cl)c3ccccc23)cc1 measurename=pIC50 testresult=7.03
chemicalsmiles=Cc1c(N(Cc2ccc3c(c2)CC(C)(C)C3)S(=O)(=O)c2ccc(C(=O)O)cc2)ncc2ccccc12 measurename=pIC50 testresult=8.08
chemicalsmiles=Cc1c(N(Cc2ccc(OC(F)(F)F)cc2)S(=O)(=O)c2ccc(C(N)=O)cc2)ncc2ccccc12 measurename=pIC50 testresult=7.68
chemicalsmiles=O=C(O)c1ccc(S(=O)(=O)N(Cc2ccc(OC(F)(F)F)cc2)c2cc3c(C4CC4)cccc3cn2)cc1 measurename=pIC50 testresult=6.62
chemicalsmiles=Cc1c(N(Cc2ccc(OC(F)(F)F)cc2)S(=O)(=O)c2ccc(C(=O)O)cc2)nc(C2CCCC2)c2ccccc12 measurename=pIC50 testresult=8.04

I. CCOc1nc(N(Cc2ccc(OC(F)(F)F)cc2)S(=O)(=O)c2ccc(C(=O)O)cc2)c(C)c2ccccc12
II. Cc1c(N(Cc2ccc(CC3CC3)c(F)c2)S(=O)(=O)c2ccc(C(=O)O)cc2)ncc2ccccc12
Choose between I and II : whose measured pIC50 value is numerically larger? I would appreciate it if you answered with the label of your choice.
II

# credit: patent US8987445B2
